Values were extracted from the Human Domainome abundance scans (Beltran et al. 2025).

B1: Tyrosine-protein kinase Lck, residues 63 to 120; numbered along this chain, P06239 (parent)
chain: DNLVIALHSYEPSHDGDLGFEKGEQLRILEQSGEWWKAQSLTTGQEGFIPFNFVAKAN

# Variants of: B1
# test method notes: abundance fitness (aPCA) (normalised: wild type 0, dead -1); higher = more abundant; growth selection in yeast, the domain comes from the species named
# conditions used: Homo sapiens
Answer each item with its documented abundance fitness.
Answers are plain numbers.

Field: example entries. Status: answers known.
I49S ... -0.939
Q31L ... -0.707

Dear reader, for each entry below, please note its abundance fitness.
1. Q45K
2. T42V
3. Q31K
4. L7V
5. A38I

Output line:
[-0.101, -0.001, 0.003, -0.161, -0.788]
